Cited source for all entries: patent US12351571B2

Quick list: pIC50 per entry.
- MEASURED TARGET: UniProt P11362
- ASSAY SUMMARY: FGFR1 pERK Cell Assay
- MEASUREMENT SETUP: HEK-293 cells, 1 hour compound, 100 ng/ml human FGF-acidic; maximum concentration 5 μM
Schema: pIC50 number; meaning minus log10 of the concentration expressed in molar units.

1) C=CC(=O)N1CC(CN2CCC(n3cc(-c4cnc5ccc(Nc6cc(OC)cc(OC)c6)cc5n4)cn3)CC2)(OC)C1 | 6.69

Query pIC50 for COc1cc(Nc2ccc3ncc(-c4cnn(C5CCN(C(=O)C6(F)CN(C(=O)/C=C/CN(C)C)C6)CC5)c4C)nc3c2)cc(OC)c1 6.37

Query pIC50 for COc1cc(Nc2ccc3ncc(-c4c(C)nn(C5CCN(C(=O)C6(F)CN(C(=O)/C=C/CN(C)C)C6)CC5)c4C)nc3c2)cc(OC)c1 5.71

Query pIC50 for C#CCN(c1cc(OC)cc(OC)c1)c1ccc2ncc(-c3cnn(C4CCN(C(=O)C5(F)CN(C(=O)/C=C/CN(C)C)C5)CC4)c3)nc2c1 7.47

Query pIC50 for C=CC(=O)N1CC(F)(C(=O)N2CCN(c3ccc(-c4cnc5ccc(Nc6cc(OC)cc(OC)c6)cc5n4)cn3)CC2)C1 5.94

Query pIC50 for C=CC(=O)N1CCC(C(=O)N2CCC(n3cc(-c4cnc5ccc(Nc6cc(OC)cc(OC)c6)cc5n4)cn3)CC2)CC1 6.46

Query pIC50 for COc1cc(Nc2ccc3ncc(-c4cnn([C@@H]5CCN(C(=O)C6(F)CN(C(=O)/C=C/CN(C)C)C6)C5)c4)nc3c2)cc(OC)c1 5.89

Query pIC50 for COc1cc(Nc2ccc3ncc(-c4cn(C5CCN(C(=O)C6(F)CN(C(=O)/C=C/CN(C)C)C6)CC5)nc4C)nc3c2)cc(OC)c1 6.05

Query pIC50 for C=CC(=O)N1CC(C(=O)N2CC(n3cc(-c4cnc5ccc(Nc6cc(OC)cc(OC)c6)cc5n4)cn3)C2)C1 5.52

Query pIC50 for C=CC(=O)N1CC[C@@H](C(=O)N2CCC(n3cc(-c4cnc5ccc(Nc6cc(OC)cc(OC)c6)cc5n4)cn3)CC2)C1 6.07

Query pIC50 for COc1cc(Nc2ccc3ncc(-c4cnc(N5CCN(C(=O)C6(F)CN(C(=O)/C=C/CN(C)C)C6)CC5)cc4C)nc3c2)cc(OC)c1 5.71

Query pIC50 for C=CC(=O)N1CC(C(=O)N2CC[C@@H](n3cc(-c4cnc5ccc(Nc6cc(OC)cc(OC)c6)cc5n4)cn3)C2)C1 5.72

----------
Quick list: FGFR1 Enz kobs per entry.
- MEASURED TARGET: FGFR1 (Homo sapiens (Human), UniProt P11362)
- ASSAY SUMMARY: LC/MS FGFR1 kobs assay (covalent modification)
- Assay type: biochemical
- MEASUREMENT SETUP: 500 nM FGFR1, 3 μM compound
Note: unit min⁻¹ is implicit; provide only the numeric part.

Example results:
1. C#CCN(c1cc(OC)cc(OC)c1)c1ccc2ncc(-c3cnn(C4CCN(C(=O)C5(F)CN(C(=O)/C=C/CN(C)C)C5)CC4)c3)nc2c1 [Example 28] | 0.01569
2. COc1cc(Nc2ccc3ncc(-c4ccc(N5CCN(C(=O)C6(F)CN(C(=O)/C=C/CN(C)C)C6)CC5)nc4C)nc3c2)cc(OC)c1 [Example 13] | 0.00293
3. COc1cc(Nc2ccc3ncc(-c4ccc(N5CCN(C(=O)C6(F)CN(C(=O)/C=C/CN(C)C)C6)CC5)nc4)nc3c2)cc(OC)c1 [Example 7] | 0.00659
4. C=CC(=O)N1CC(C(=O)N2CC(n3cc(-c4cnc5ccc(Nc6cc(OC)cc(OC)c6)cc5n4)cn3)C2)C1 [Example 16] | 0.00151
5. C=CC(=O)N1CC(OC)(C(=O)N2CCC(n3cc(-c4cnc5ccc(Nc6cc(OC)cc(OC)c6)cc5n4)cn3)CC2)C1 [Example 24] | 0.00223

Turning to the following compound.
Query FGFR1 Enz kobs for C=CC(=O)N1CC(CN2CCC(n3cc(-c4cnc5ccc(Nc6cc(OC)cc(OC)c6)cc5n4)cn3)CC2)(OC)C1 [Example 29] 0.0025

----------
Quick list: pIC50 per entry.
- MEASURED TARGET: recombinant human FGFR1 catalytic domain (Homo sapiens (Human))
- ASSAY SUMMARY: FGFR Enzyme Activity Assay (LanthaScreen TR-FRET), FGFR1
- MEASUREMENT SETUP: 15 μM ATP, 20 minutes incubation; read-out: FGFR1 Enz FRET IC50
Schema: pIC50 number; meaning minus log10 of the concentration expressed in molar units.

1) C=CC(=O)N1CC(C(=O)N2CCC(n3cc(-c4cnc5ccc(Nc6cc(OC)cc(OC)c6)cc5n4)cn3)CC2)C1 | 7.27

Report value only: pIC50, recombinant human FGFR1 catalytic domain (Homo sapiens (Human)), COc1cc(Nc2ccc3ncc(-c4cnc(N5CCN(C(=O)C6(F)CN(C(=O)/C=C/CN(C)C)C6)CC5)cc4C)nc3c2)cc(OC)c1 5.81

Report value only: pIC50, recombinant human FGFR1 catalytic domain (Homo sapiens (Human)), COc1cc(Nc2ccc3ncc(-c4cn(C5CCN(C(=O)C6(F)CN(C(=O)/C=C/CN(C)C)C6)CC5)nc4C)nc3c2)cc(OC)c1 6.47

----------
Quick list: IC50 per entry.
- MEASURED TARGET: human wild type FGFR3 (Homo sapiens (Human))
- Sequence (P22607 23-806): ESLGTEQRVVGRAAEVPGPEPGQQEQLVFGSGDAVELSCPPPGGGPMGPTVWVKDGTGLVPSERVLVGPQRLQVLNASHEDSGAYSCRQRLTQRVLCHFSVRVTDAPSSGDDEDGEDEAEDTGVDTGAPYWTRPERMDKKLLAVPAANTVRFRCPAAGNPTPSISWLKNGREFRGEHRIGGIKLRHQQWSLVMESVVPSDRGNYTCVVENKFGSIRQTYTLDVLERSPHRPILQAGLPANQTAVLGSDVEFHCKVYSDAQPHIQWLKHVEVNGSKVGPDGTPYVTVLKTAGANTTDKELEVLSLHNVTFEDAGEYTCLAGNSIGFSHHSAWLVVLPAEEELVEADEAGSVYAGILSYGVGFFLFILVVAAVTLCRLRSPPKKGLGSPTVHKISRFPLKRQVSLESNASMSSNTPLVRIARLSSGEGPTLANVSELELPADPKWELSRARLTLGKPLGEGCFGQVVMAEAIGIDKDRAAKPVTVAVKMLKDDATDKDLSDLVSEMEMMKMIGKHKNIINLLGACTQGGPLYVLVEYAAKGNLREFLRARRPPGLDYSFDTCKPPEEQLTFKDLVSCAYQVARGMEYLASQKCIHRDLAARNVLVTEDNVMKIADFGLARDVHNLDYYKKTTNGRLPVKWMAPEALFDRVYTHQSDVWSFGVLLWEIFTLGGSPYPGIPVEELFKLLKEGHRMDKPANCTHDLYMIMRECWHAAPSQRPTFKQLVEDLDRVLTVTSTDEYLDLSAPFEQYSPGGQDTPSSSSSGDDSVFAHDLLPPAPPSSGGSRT
- ASSAY SUMMARY: FGFR3 pERK Cell Assay
- Format: cell-based
- MEASUREMENT SETUP: HEK-293 cells, 1 hour compound, 100 ng/ml human FGF-acidic; maximum concentration 5 μM
Note: unit nM is implicit; provide only the numeric part.

Query IC50 for COc1cc(Nc2ccc3ncc(-c4c(C)nn(C5CCN(C(=O)C6(F)CN(C(=O)/C=C/CN(C)C)C6)CC5)c4C)nc3c2)cc(OC)c1 699

Query IC50 for COc1cc(Nc2ccc3ncc(-c4cnn([C@@H]5CCN(C(=O)C6(F)CN(C(=O)/C=C/CN(C)C)C6)C5)c4)nc3c2)cc(OC)c1 114

Query IC50 for C=CC(=O)N1CC(C#N)(C(=O)N2CCC(n3cc(-c4cnc5ccc(Nc6cc(OC)cc(OC)c6)cc5n4)cn3)CC2)C1 22

----------
Quick list: pIC50 per entry.
- MEASURED TARGET: recombinant human FGFR1 catalytic domain (Homo sapiens (Human), UniProt P11362)
- Sequence (P11362 other isoform, or with tags, fused parts or gaps): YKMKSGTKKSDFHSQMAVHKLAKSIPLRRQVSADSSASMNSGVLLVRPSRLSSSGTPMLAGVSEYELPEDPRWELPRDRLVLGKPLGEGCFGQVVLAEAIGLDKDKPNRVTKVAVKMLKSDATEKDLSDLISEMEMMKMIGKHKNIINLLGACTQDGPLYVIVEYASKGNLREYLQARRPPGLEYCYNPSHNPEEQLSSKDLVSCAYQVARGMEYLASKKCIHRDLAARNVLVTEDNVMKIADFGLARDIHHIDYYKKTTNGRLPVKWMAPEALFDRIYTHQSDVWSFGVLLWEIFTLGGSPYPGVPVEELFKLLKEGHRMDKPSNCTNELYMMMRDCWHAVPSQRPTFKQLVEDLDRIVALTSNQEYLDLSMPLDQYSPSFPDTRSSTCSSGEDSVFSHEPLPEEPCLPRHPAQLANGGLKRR
- ASSAY SUMMARY: FGFR Enzyme Activity Assay (LanthaScreen TR-FRET), FGFR1
- MEASUREMENT SETUP: 15 μM ATP, 20 minutes incubation; read-out: FGFR1 Enz FRET IC50
- Procedure: FGFR1 kinase activity was measured by the Invitrogen LanthaScreen™ Assay technology which directly measures the amount of substrate phosphorylation by Time-resolved fluorescence energy transfer (TR-FRET) using a flourescently-labeled peptide and Europium-labeled antibody. […] 100 POC was determined using no test compounds and 0 POC was determined using no enzyme. […]
Schema: pIC50 number; meaning minus log10 of the concentration expressed in molar units.

Example results:
1. C=CC(=O)N1CCC(C(=O)N2CCC(n3cc(-c4cnc5ccc(Nc6cc(OC)cc(OC)c6)cc5n4)cn3)CC2)CC1 | 7.29
2. COc1cc(Nc2ccc3ncc(-c4c(C)nn(C5CCN(C(=O)C6(F)CN(C(=O)/C=C/CN(C)C)C6)CC5)c4C)nc3c2)cc(OC)c1 | 5.30
3. C=CC(=O)N1CC(O)(C(=O)N2CCC(n3cc(-c4cnc5ccc(Nc6cc(OC)cc(OC)c6)cc5n4)cn3)CC2)C1 | 6.93

Query pIC50 for C=CC(=O)N1CC(CN2CCC(n3cc(-c4cnc5ccc(Nc6cc(OC)cc(OC)c6)cc5n4)cn3)CC2)(OC)C1 6.38

Query pIC50 for C=CC(=O)N1CC(CN2CCC(n3cc(-c4cnc5ccc(Nc6cc(OC)cc(OC)c6)cc5n4)cn3)CC2)C1 6.83

Query pIC50 for COc1cc(Nc2ccc3ncc(-c4ccc(N5CCN(C(=O)C6(F)CN(C(=O)/C=C/CN(C)C)C6)CC5)nc4C)nc3c2)cc(OC)c1 5.67

Query pIC50 for COc1cc(Nc2ccc3ncc(-c4cnn(C5CCN(C(=O)C6(C#N)CN(C(=O)/C=C/CN(C)C)C6)CC5)c4)nc3c2)cc(OC)c1 7.36

Query pIC50 for C=CC(=O)N1CC(F)(C(=O)N2CCC(n3cc(-c4cnc5ccc(Nc6cc(OC)cc(OC)c6)cc5n4)cn3)CC2)C1 7.05

----------
- MEASURED TARGET: FGFR1 (Homo sapiens (Human), UniProt P11362)
- ASSAY SUMMARY: LC/MS FGFR1 kobs assay (covalent modification)
- Assay type: biochemical
- MEASUREMENT SETUP: 500 nM FGFR1, 3 μM compound
QUANTITY KIND: FGFR1 Enz kobs
Don't forget the unit after the number, please.

Example results:
1. COc1cc(Nc2ccc3ncc(-c4cn(C5CCN(C(=O)C6(F)CN(C(=O)/C=C/CN(C)C)C6)CC5)nc4C)nc3c2)cc(OC)c1 [Example 22] | 0.00673 min⁻¹
2. COc1cc(Nc2ccc3ncc(-c4cnn([C@@H]5CCN(C(=O)C6(F)CN(C(=O)/C=C/CN(C)C)C6)C5)c4)nc3c2)cc(OC)c1 [Example 19] | 0.00339 min⁻¹
3. C=CC(=O)N1CC(C(=O)N2CCC(n3ncc(-c4cnc5ccc(Nc6cc(OC)cc(OC)c6)cc5n4)c3C)CC2)C1 [Example 18] | 0.00096 min⁻¹
4. COc1cc(Nc2ccc3ncc(-c4c(C)nn(C5CCN(C(=O)C6(F)CN(C(=O)/C=C/CN(C)C)C6)CC5)c4C)nc3c2)cc(OC)c1 [Example 23] | 0.00386 min⁻¹
5. C=CC(=O)N1CC(C(=O)N2CCN(c3cccc(-c4cnc5ccc(Nc6cc(OC)cc(OC)c6)cc5n4)c3)CC2)C1 [Example 25] | 0.00404 min⁻¹

Turning to the following compound.
Query FGFR1 Enz kobs for COc1cc(Nc2ccc3ncc(-c4cnn([C@@H]5CCN(C(=O)C6CN(C(=O)/C=C/CN(C)C)C6)C5)c4)nc3c2)cc(OC)c1 [Example 20] 0.00141 min⁻¹
